target: Interleukin-2 (Homo sapiens); assay: Concentration required to inhibit mouse interleukin-2 alpha receptor was determined by SPA assay
Sequence (P60568 whole entry): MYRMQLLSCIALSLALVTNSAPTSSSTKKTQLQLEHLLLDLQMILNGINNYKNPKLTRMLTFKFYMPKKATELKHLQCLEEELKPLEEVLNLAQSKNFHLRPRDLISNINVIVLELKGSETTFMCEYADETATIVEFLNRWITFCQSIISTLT
readout.label: IC50 (µM)

A = CC(C)C[C@@H](N=C(N)N)C(=O)NCC(=O)N1CCC(c2cc(-c3ccc(OCc4cccc(C(=O)O)c4)c(Cl)c3Cl)nn2C)CC1
B = Cn1nc(-c2cccc(Cl)c2Cl)cc1C1CCN(C(=O)CNC(=O)[C@H](N=C(N)N)C2CCCCC2)CC1
C = NC(N)=N[C@@H](C(=O)NCC(=O)N1CCC(c2cc(-c3ccccc3)n[nH]2)CC1)C1CCCCC1
Problem: Reorder the records above by IC50 so that values decrease. Returns: the labels arranged in the requested order.
Solution: C, B, A
(C: 120 µM, B: 20 µM, A: 0.4 µM)
